I'd be grateful if you could share measured IC50 for these entries.
Tested System: EGFR (C797S L858R) (Homo sapiens, UniProt P00533, C797S/L858R)
Construct: purchased signalchem
Sequence (P00533 25-1210 C797S/L858R): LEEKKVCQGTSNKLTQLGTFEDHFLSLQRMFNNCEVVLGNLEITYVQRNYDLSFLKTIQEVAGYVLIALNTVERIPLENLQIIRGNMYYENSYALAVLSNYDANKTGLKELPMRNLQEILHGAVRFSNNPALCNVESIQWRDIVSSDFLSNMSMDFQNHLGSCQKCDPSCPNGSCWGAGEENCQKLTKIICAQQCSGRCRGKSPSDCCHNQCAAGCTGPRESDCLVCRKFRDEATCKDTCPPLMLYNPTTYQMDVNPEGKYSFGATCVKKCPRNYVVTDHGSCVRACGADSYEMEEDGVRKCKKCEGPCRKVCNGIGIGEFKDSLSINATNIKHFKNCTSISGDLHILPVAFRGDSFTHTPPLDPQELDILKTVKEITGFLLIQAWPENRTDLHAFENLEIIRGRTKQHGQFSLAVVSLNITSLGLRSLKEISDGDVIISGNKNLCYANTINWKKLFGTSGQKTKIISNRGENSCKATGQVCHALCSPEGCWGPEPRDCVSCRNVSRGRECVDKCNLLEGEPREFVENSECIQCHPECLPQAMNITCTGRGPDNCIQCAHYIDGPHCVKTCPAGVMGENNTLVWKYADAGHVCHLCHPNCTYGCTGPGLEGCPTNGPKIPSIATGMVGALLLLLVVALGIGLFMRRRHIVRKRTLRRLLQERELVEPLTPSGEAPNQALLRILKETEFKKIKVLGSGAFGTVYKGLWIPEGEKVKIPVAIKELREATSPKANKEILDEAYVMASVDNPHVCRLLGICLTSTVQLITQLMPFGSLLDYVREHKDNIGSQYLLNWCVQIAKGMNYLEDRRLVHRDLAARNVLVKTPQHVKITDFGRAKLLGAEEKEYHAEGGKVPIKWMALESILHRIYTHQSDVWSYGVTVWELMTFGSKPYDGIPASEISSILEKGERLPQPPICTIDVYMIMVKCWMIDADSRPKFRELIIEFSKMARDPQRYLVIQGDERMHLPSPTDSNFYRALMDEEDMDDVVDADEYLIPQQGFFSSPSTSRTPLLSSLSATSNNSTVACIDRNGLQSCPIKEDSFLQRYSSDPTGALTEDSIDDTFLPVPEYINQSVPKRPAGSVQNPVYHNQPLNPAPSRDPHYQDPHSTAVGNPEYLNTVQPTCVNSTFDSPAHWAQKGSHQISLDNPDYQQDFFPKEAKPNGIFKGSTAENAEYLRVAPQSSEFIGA
Experimental Details: Inhibition of EGFR (C797S L858R) biochemical enzymatic activity (HTRF)
Reported Conditions: EGFR (C797S L858R), 1 mM ATP, 1 h at room temperature, read-out: IC50 @L858-C797S
Return type: number; implicit unit nM.

Request - read-out IC50 | tested on EGFR (C797S L858R) (Homo sapiens, UniProt P00533, C797S/L858R) | molecule Cc1cc2cc(n1)-c1cnn(C)c1OCCN1CC3CCC(C3)(C1)n1c(nc3ccc(N4CC5CC4CN5C)cc31)NC2=O (single isomer, unassigned) [Example B53B] 9.5

Another molecule: Cc1cc2cc(n1)-c1cnn(C)c1OCCC[C@@H](C)Cn1c(nc3ccc4c(c31)CCN(C1COC1)C4)NC2=O 37

Another molecule: Cc1cc2cc(n1)-c1cnn(C)c1OCCN1CC3CCC(C3)(C1)n1c(nc3ccc(N(C)CCCN(C)C)cc31)NC2=O (single isomer, unassigned) [Example B45B] 14
